ASSAY_TARGET: T1, cynomolgus monkey CTLA-4 ECD-6×His (cynomolgus monkey)
T1 construct: extracellular domain; Bought; also called cynomoguls monkey CTLA-4.ECD-6×His
ASSAY_NAME: SPR, antibody captured on anti-human Fc, CTLA-4.ECD-6×His as analyte, 1:1 fit

{"BINDER": "W3162-1.145.10 xAb.IgG1 (antibody, V domains shown, Chimeric: rat variable regions fused with constant region of human antibody (label xAb.IgG1)) VH: EVQLVESGGGLVQPGRSLKLSCAASDLTFSNYDMAWVRQTPTKGLEWVASISPNGGNTYYRDSVKGRFTVSRDNAKNSLYLQMDSLRSEDTATYYCARHLWFAYWGQGTLVTVSS VL: DIQMTQSPSSMSASLGDRVTISCQASQDIGSNLIWFQQKPGKSPRPMIYYATHLADGVPSRFSGSRSGSDYSLTISSLESEDVADYHCLQYKQYPRTFGGGTKLELK", "kon / M⁻¹ s⁻¹": "1.06e+07"}
{"BINDER": "W3162-1.154.8 xAb.IgG1 (antibody, V domains shown, Chimeric: rat variable regions fused with constant region of human antibody (label xAb.IgG1)) VH: EVQLQQSGPEAGRPGSSVKISCKASGYTFTNYFMNWVKQSPGQGLEWIGRVDPENGRADYAEKFKKKATLTADTTSNTAYIHLSSLTSEDTATYFCARRAMDNYGFAYWGQGTLVTVSS VL: EIMLTQSPTIMAASLGEKITITCSANSSLSYMYWFQQKSGASPKLWVHGTSNLASGVPDRFSGSGSGTSYYLTINTMEAEDAATYFCHHWSNTQWTFGGGTKLELK", "kon / M⁻¹ s⁻¹": "1.25e+06"}
{"BINDER": "W3162-1.146.19-z12-uAb.IgG1K (antibody, V domains shown, Humanized; label says IgG1K) VH: QVQLQESGPGLVKPSETLSLTCSVTYHTITSGYDWTWIRKPPGKGMEWIGYISYSGNTNYNPSLKSRVTISRDTSKNQFFLKLSSVTAADTAVYYCASMMVPHYYVMDAWGQGTLVTVSS VL: DIVMTQTPLSLSVTPGQPASISCRSSQSLLNSDGNTYLYWYLQKPGQSPQLLIYLVSKLGSGVPNRFSGSGSGTDFTLKISRVEAEDVGVYYCVQGTHDPWTFGGGTKVEIK", "kon / M⁻¹ s⁻¹": 173000}
{"BINDER": "W3162_1.154.8-z35-uAb.IgG1K (antibody, V domains shown, Humanized; label says IgG1K) VH: QVQLVQSGAEVKKPGSSVKVSCKASGYTFTNYFMNWVRQAPGQGLEWMGRVDPEQGRADYAEKFKKRVTITADKSTSTAYMELSSLRSEDTAVYYCARRAMDNYGFAYWGQGTLVTVSS VL: EIVLTQSPDFQSVTPKEKVTITCSANSALSYMYWYQQKPDQSPKLWVHGTSNLASGVPSRFSGSGSGTDFTLTINSLEAEDAATYYCHHWSNTQWTFGGGTKVEIK", "kon / M⁻¹ s⁻¹": 932000}
{"BINDER": "W3162-1.146.19 xAb.IgG1 (antibody, V domains shown, Chimeric: rat variable regions fused with constant region of human antibody (label xAb.IgG1)) VH: EVQLQESGPGLVKPSQSLSLTCSVTYHTITSGYDWTWIRKFPGNQMEWMGYISYSGNTNYNPSLKSRISITRDTSKNQFFLHLNSVTSEDTATYYCASMMVPHYYVMDAWGQGASVTVSS VL: DVVLTQTPPTSSATIGQSVSISCRSSQSLLNSDGNTYLYWYLQRPSQSPQLLIYLVSKLGSGVPNRFSGSGSGTDFTLKISGVEAEDLGLYYCVQGTHDPWTFGGGTKLELK", "kon / M⁻¹ s⁻¹": 291000}
{"BINDER": "W3162_1.145.10-z7-uAb.IgG1K (antibody, V domains shown, Humanized; label says IgG1K; also called W145) VH: EVQLVESGGGLVQPGGSLRLSCAASDLTFSNYDMAWVRQAPGKGLEWVASISPSGGNTYYRDSVKGRFTISRDNAKNSLYLQMNSLRAEDTAVYYCARHLWFAYWGQGTLVTVSS VL: DIQMTQSPSSLSASVGDRVTITCQASQDIGSNLIWFQQKPGKAPKPMIYYATHLADGVPSRFSGSRSGTDYTLTISSLQPEDFATYYCLQYKQYPRTFGGGTKVEIK", "kon / M⁻¹ s⁻¹": "4.52e+06"}

Origin of values: patent US20200277377A1
